B1: P2RY14 (parent)
chain: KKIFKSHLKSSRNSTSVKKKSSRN

- Variants of: B1
- ASSAY TEXT: protein stability index of a GFP-peptide fusion (GPS, HEK-293T) (PSI 1-6); higher = more stable;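 note: lentivirally expressed fusions sorted by FACS into six bins by GFP to DsRed ratio, PSI derived from sequencing read proportions per bin multiplied by bin number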
- STUDY CONDITIONS: c terminus: a fixed tail appended
PARAMETER MEASURED: protein stability index

SEQUENCE ENTRY	PARAMETER MEASURED	NUMERIC RESULT
KKIFKSHLKSSRNSTSVKRKSSRN	protein stability index	4.27
KSIFKSHLKSSRNSTSVKKKSSRN	protein stability index	4.37
KKIFKSHLKSSRNPTSVKKKSSRN	protein stability index	4.43
KKIFKSHLKSSLNSTSVKKKSSRN	protein stability index	4.11
KKIFKSHLKSSRNKTSVKKKSSRN	protein stability index	4.07
KKIFKSHLKSSRNSTSVKKKISRN	protein stability index	3.98
KKIFKSHLKSSRNSTSVKKKSSSN	protein stability index	4.28
KKIFKSHLKSSRNSTSVKKKSSYN	protein stability index	4.07
KKIFKSHFKSSRNSTSVKKKSSRN	protein stability index	4.04
KKIFKAHLKSSRNSTSVKKKSSRN	protein stability index	3.68
WKIFKSHLKSSRNSTSVKKKSSRN	protein stability index	2.7
FKIFKSHLKSSRNSTSVKKKSSRN	protein stability index	3.8
KKIRKSHLKSSRNSTSVKKKSSRN	protein stability index	4.48
KHIFKSHLKSSRNSTSVKKKSSRN	protein stability index	4.01
KKIFKSHLKSSRNSTSVKKKSSFN	protein stability index	3.42
KKIFKSHLKSSRYSTSVKKKSSRN	protein stability index	3.6
KKIFKSHLKSSRNSTSVPKKSSRN	protein stability index	4.29
KKIFKCHLKSSRNSTSVKKKSSRN	protein stability index	4.06
KKIFKSHLKSSRNSTSVKKKSSHN	protein stability index	3.57
KKIIKSHLKSSRNSTSVKKKSSRN	protein stability index	4.3
KKIFKSHLKSSRLSTSVKKKSSRN	protein stability index	3.3
KKIFISHLKSSRNSTSVKKKSSRN	protein stability index	3.55
KKITKSHLKSSRNSTSVKKKSSRN	protein stability index	4
KKIPKSHLKSSRNSTSVKKKSSRN	protein stability index	4.58
KKIFKSHTKSSRNSTSVKKKSSRN	protein stability index	4.3
KKMFKSHLKSSRNSTSVKKKSSRN	protein stability index	4.77
KKGFKSHLKSSRNSTSVKKKSSRN	protein stability index	4.28
KKIFKSHLKSSRNSCSVKKKSSRN	protein stability index	3.63
KLIFKSHLKSSRNSTSVKKKSSRN	protein stability index	3.2
KKIFKSHLKSSRNSTSVKKKSSRR	protein stability index	4.16
KRIFKSHLKSSRNSTSVKKKSSRN	protein stability index	3.88
KKIFKQHLKSSRNSTSVKKKSSRN	protein stability index	4.07
KKIFKSHHKSSRNSTSVKKKSSRN	protein stability index	4.05
KKIFKSHLKSSRNSTSVKKKSSIN	protein stability index	3.67
KKIFMSHLKSSRNSTSVKKKSSRN	protein stability index	3.95
KKIFKSHLKSSRNSTSVKKKSVRN	protein stability index	4.33
KKIEKSHLKSSRNSTSVKKKSSRN	protein stability index	4.45
KKIQKSHLKSSRNSTSVKKKSSRN	protein stability index	4.71
KKIFKSHLKSSRNSTSVKKKSPRN	protein stability index	4.21
KKIFKGHLKSSRNSTSVKKKSSRN	protein stability index	4.18
KKIFKSHLKSHRNSTSVKKKSSRN	protein stability index	4.67
KKIFKSHLKSSRNSTSVKKKSSRE	protein stability index	3.91
KKIFKSHLKSSRNSTSVKKKSSRK	protein stability index	3.81
KKIFKSHLKSSRNDTSVKKKSSRN	protein stability index	4.14
KKIFKSHLKSSRNSWSVKKKSSRN	protein stability index	3.46
KKIFKSHLKSERNSTSVKKKSSRN	protein stability index	4.35
